Molecular target: P2Y12 (Homo sapiens, UniProt Q9H244)
Sequence (Q9H244 whole entry, species assumed): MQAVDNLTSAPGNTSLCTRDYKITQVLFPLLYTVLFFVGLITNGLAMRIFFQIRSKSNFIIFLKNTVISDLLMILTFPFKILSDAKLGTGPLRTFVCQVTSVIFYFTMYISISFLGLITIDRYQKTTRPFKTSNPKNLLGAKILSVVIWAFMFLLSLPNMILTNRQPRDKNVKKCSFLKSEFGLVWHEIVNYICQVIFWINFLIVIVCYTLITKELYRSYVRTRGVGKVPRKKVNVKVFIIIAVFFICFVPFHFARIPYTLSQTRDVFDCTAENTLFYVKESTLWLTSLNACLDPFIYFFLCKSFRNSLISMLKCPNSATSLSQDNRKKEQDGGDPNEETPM
Assay: Potency of standard compounds at P2Y12 receptor
Settings: SEM not given

- compound: "Nc1c(S(=O)(=O)O)cc(Nc2ccc(Nc3nc(Cl)nc(Nc4cccc(S(=O)(=O)O)c4)n3)c(S(=O)(=O)O)c2)c2c1C(=O)c1ccccc1C2=O [RB2, reactive blue 2]"
  Ki: "1.3 µM"

====

Target: human NTPDase3 (Homo sapiens, UniProt O75355)
Sequence (O75355 1-529): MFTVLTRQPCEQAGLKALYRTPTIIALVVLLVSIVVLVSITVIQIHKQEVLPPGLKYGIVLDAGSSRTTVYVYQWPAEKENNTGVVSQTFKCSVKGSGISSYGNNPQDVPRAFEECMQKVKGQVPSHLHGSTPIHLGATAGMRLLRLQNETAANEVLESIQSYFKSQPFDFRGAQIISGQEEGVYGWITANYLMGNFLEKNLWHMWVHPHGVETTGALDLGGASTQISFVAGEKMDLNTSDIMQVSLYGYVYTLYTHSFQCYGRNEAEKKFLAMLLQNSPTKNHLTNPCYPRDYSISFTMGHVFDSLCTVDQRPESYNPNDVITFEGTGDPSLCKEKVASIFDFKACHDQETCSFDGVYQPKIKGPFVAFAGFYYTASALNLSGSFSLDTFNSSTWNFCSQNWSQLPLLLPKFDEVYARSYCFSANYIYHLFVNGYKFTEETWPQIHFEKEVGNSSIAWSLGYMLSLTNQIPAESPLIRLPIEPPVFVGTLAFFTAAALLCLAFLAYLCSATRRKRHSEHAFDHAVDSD
Assay: NTPDase inhibition assay by capillary electrophoresis (CE), NTPDase3
Assay type: biochemical
Settings: CE method, ATP 320 μM, Km 75 μM, read-out: NTPDase3 Ki [μM] ± SEM
readout.label: Ki

- compound: "CCOP(=O)(CNC(=O)CCCNC(=O)[C@H]1O[C@@H](n2ccc(=O)[nH]c2=O)C(O)C1O)OCC (stereo in doubt)"
  reported.value: "> 200 µM"
- compound: "CCOP(=O)(CCNC(=O)CNC(=O)[C@H]1O[C@@H](n2ccc(=O)[nH]c2=O)C(O)C1O)OCC (stereo in doubt)"
  reported.value: "> 200 µM"
- compound: "CCOP(=O)(Cc1ccc(NC(=O)CCNC(=O)[C@H]2O[C@@H](n3ccc(=O)[nH]c3=O)C(O)C2O)cc1)OCC (stereo in doubt)"
  reported.value: "> 200 µM"

====

Biological target: human NTPDase1 (Homo sapiens, UniProt P49961)
Sequence (P49961 whole entry): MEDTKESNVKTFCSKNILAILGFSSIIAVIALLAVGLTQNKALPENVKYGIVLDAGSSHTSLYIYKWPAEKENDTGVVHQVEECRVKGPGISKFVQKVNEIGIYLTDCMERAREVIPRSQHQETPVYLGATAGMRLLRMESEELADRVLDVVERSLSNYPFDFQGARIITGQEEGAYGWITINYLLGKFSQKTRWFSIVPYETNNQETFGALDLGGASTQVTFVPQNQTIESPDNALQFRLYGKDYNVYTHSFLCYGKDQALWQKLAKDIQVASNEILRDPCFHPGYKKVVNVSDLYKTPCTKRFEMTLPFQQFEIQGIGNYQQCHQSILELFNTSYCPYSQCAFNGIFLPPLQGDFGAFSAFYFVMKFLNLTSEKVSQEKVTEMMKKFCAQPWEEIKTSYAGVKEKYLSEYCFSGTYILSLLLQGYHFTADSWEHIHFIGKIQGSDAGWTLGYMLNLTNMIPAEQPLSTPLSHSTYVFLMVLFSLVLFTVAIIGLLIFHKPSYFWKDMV
Test: NTPDase inhibition assay by capillary electrophoresis (CE), NTPDase1
Assay type: biochemical
Conditions: CE method, ATP 320 μM, Km 17 μM, read-out: NTPDase1 Ki [μM] ± SEM
readout.label: Ki (µM)

- compound: "CCOC(=O)C(CC(=O)O)NC(=O)CCCNC(=O)[C@H]1O[C@@H](n2ccc(=O)[nH]c2=O)[C@H](O)[C@@H]1O (some centres unmarked)"
  assay.system: "human NTPDase1 (Homo sapiens, UniProt P49961)"
  readout.label: "Ki"
  relation.symbol: "="
  reported.value: 29
- compound: "CCOP(=O)(Cc1ccc(NC(=O)CCNC(=O)[C@H]2O[C@@H](n3ccc(=O)[nH]c3=O)C(O)C2O)cc1)OCC (stereo in doubt)"
  assay.system: "human NTPDase1 (Homo sapiens, UniProt P49961)"
  readout.label: "Ki"
  relation.symbol: "="
  reported.value: 55.2
- compound: "CCOP(=O)(CCNC(=O)CNC(=O)[C@H]1O[C@@H](n2ccc(=O)[nH]c2=O)C(O)C1O)OCC (stereo in doubt)"
  assay.system: "human NTPDase1 (Homo sapiens, UniProt P49961)"
  readout.label: "Ki"
  relation.symbol: ">"
  reported.value: 50
- compound: "O=C(O)CCC(NC(=O)CCNC(=O)[C@H]1O[C@@H](N2CCC(=O)NC2=O)[C@H](O)[C@@H]1O)C(=O)O (some centres unmarked)"
  assay.system: "human NTPDase1 (Homo sapiens, UniProt P49961)"
  readout.label: "Ki"
  relation.symbol: "="
  reported.value: 10.8
- compound: "CCOP(=O)(OCC)C(NC(=O)CCCNC(=O)[C@H]1O[C@@H](n2ccc(=O)[nH]c2=O)C(O)C1O)P(=O)(OCC)OCC (stereo in doubt)"
  assay.system: "human NTPDase1 (Homo sapiens, UniProt P49961)"
  readout.label: "Ki"
  relation.symbol: "="
  reported.value: 32.4
- compound: "CCOP(=O)(OCC)C(NC(=O)CNC(=O)[C@H]1O[C@@H](n2ccc(=O)[nH]c2=O)C(O)C1O)P(=O)(OCC)OCC (stereo in doubt)"
  assay.system: "human NTPDase1 (Homo sapiens, UniProt P49961)"
  readout.label: "Ki"
  relation.symbol: "="
  reported.value: 93
- compound: "CCOP(=O)(Cc1ccc(NC(=O)CCNC(=O)[C@H]2O[C@@H](n3cnc4c(N)ncnc43)C(O)C2O)cc1)OCC (stereo in doubt)"
  assay.system: "human NTPDase1 (Homo sapiens, UniProt P49961)"
  readout.label: "Ki"
  relation.symbol: "="
  reported.value: 154
- compound: "CCOP(=O)(Cc1ccc(NC(=O)CNC(=O)[C@H]2O[C@@H](n3cnc4c(N)ncnc43)C(O)C2O)cc1)OCC (stereo in doubt)"
  assay.system: "human NTPDase1 (Homo sapiens, UniProt P49961)"
  readout.label: "Ki"
  relation.symbol: ">"
  reported.value: 50
- compound: "CCOP(=O)(CNC(=O)CCNC(=O)[C@H]1O[C@@H](n2ccc(=O)[nH]c2=O)[C@H](O)[C@@H]1O)OCC"
  assay.system: "human NTPDase1 (Homo sapiens, UniProt P49961)"
  readout.label: "Ki"
  relation.symbol: ">"
  reported.value: 50
- compound: "CCOP(=O)(CNC(=O)CNC(=O)[C@H]1O[C@@H](n2ccc(=O)[nH]c2=O)C(O)C1O)OCC (stereo in doubt)"
  assay.system: "human NTPDase1 (Homo sapiens, UniProt P49961)"
  readout.label: "Ki"
  relation.symbol: "="
  reported.value: 786
- compound: "CCOP(=O)(Cc1ccc(NC(=O)CCCNC(=O)[C@H]2O[C@@H](n3ccc(=O)[nH]c3=O)C(O)C2O)cc1)OCC (stereo in doubt)"
  assay.system: "human NTPDase1 (Homo sapiens, UniProt P49961)"
  readout.label: "Ki"
  relation.symbol: "="
  reported.value: 182
